All figures here come from ChEMBL document CHEMBL3091347.

Tested on: Mycobacterium tuberculosis
Assay: Antitubercular activity against Mycobacterium tuberculosis BCG
Format: functional
Hi! Just check whether MIC is below 3 µg/mL. Below gives 1, equal or above gives -1.

# count of solved cases: 4
compound	assayed_target	class_label
COc1ccc(C(=O)NN)cc1	Mycobacterium tuberculosis	-1
NNC(=O)c1ccc(O)cc1	Mycobacterium tuberculosis	-1
CC1CCCC(NNC(=O)c2ccncc2)C1 (stereo not given)	Mycobacterium tuberculosis	-1
COc1cc(C(=O)NN)ccc1O	Mycobacterium tuberculosis	-1

Let's switch to this compound now.
[in] Strictly below 3 µg/mL: is that where MIC of CCCCCCCCCCCCNNC(=O)c1ccncc1 sits?
[out] 1

* * *

Here the recorded logP is given for each entry.
Experiment: Lipophilicity, log P of the compound
Settings: octanol/water, logP
Give the figure by itself; no unit, no explanation.

NNC(=O)c1ccc([N+](=O)[O-])cc1 -1.1
CC(C)/C=N\NC(=O)c1ccncc1 -0.998
CCCCCCCCCCCCNNC(=O)c1ccncc1 3.64
CCCCCC/C=N/NC(=O)c1cccs1 1.84
CC(C)=NNC(=O)c1ccco1 0.656

[in] Indicate its recorded logP; the compound in question is CC(=O)NCc1cc(C(=O)NN)ccn1
[out] -3.75

[in] Indicate its recorded logP; the compound in question is NNC(=O)c1ccccn1
[out] -1.95

[in] Indicate its recorded logP; the compound in question is NNC(=O)c1nc2ccccc2s1
[out] -1.08

[in] Indicate its recorded logP; the compound in question is NNC(=O)c1cccc([N+](=O)[O-])c1
[out] -1.1

[in] Indicate its recorded logP; the compound in question is CCC(CC)=NNC(=O)c1ccncc1
[out] -0.469

[in] Indicate its recorded logP; the compound in question is Cc1ccc(C)n1NC(=O)c1ccncc1
[out] 0.854

[in] Indicate its recorded logP; the compound in question is NNC(=O)c1ccncc1N
[out] -3.12

[in] Indicate its recorded logP; the compound in question is CCCCCCCCC(=O)NNC(=O)c1ccncc1
[out] 2.22

[in] Indicate its recorded logP; the compound in question is CC(=O)NNC(C)=O
[out] -3.91

[in] Indicate its recorded logP; the compound in question is N/C(COc1cccc(Cl)c1)=N\NC(=O)c1ccncc1
[out] 1.34

* * *

Tested on: Mycobacterium tuberculosis
Assay: Antitubercular activity against Mycobacterium tuberculosis BCG
Type: functional
quantity_kind: MIC (µg/mL)
Dear colleague, please return just the value in µg/mL, with no unit written.

Here are 2 molecules together with their reported answers.
molecule	MIC, µg/mL
NNC(=O)c1cnccn1 [PYRAZINE CARBOXYLIC ACID HYDRAZIDE]	1.5
CC1CCC(NNC(=O)c2ccncc2)CC1 (stereo not given)	5

[in] Indicate its recorded MIC; the molecule in question is NNC(=O)c1ccc(C(=O)NN)cc1
[out] 3

[in] Indicate its recorded MIC; the molecule in question is N/N=C(\CC(=O)c1ccncc1)C(=O)c1ccncc1
[out] 15

[in] Indicate its recorded MIC; the molecule in question is NNC(=O)c1csc(N)n1
[out] 3

* * *

Assay: Lipophilicity, log P of the compound
Conditions: octanol/water, logP
quantity_kind: logP
Give the figure by itself; no unit, no explanation.

[in] Indicate its recorded logP; the molecule in question is O=C(NNC(=O)c1cccs1)c1cccs1
[out] -0.738

[in] Indicate its recorded logP; the molecule in question is CCN(CC)c1ccc(/C=N/NC(=O)c2ccncc2)cc1
[out] 2.53

[in] Indicate its recorded logP; the molecule in question is CC(=O)C/C(C)=N/NC(=O)c1ccncc1
[out] -3.02

[in] Indicate its recorded logP; the molecule in question is CC(=O)N(Nc1ccccc1)c1ccccc1
[out] 1.31

[in] Indicate its recorded logP; the molecule in question is Cc1ncnc(O)c1C(=O)NN
[out] -2.88

[in] Indicate its recorded logP; the molecule in question is C/C(=N\NC(=O)c1ccncc1)c1cccc(CN(Cc2ccccc2)Cc2ccccc2)c1O
[out] 4.33

[in] Indicate its recorded logP; the molecule in question is CC(C(=O)c1ccncc1)C(/C=N/N)C(=O)c1ccncc1 (centres undefined)
[out] -2.43

[in] Indicate its recorded logP; the molecule in question is CCOc1cc(C(=O)NN)ccn1
[out] -1.5

[in] Indicate its recorded logP; the molecule in question is CCCCCC/C=N/NC(=O)c1ccncc1
[out] 0.719

[in] Indicate its recorded logP; the molecule in question is C/C(=N\NC(=O)c1ccncc1)c1cccc(CN2CCOCC2)c1O
[out] 1.61

[in] Indicate its recorded logP; the molecule in question is COc1cc(C(=O)NN)ccc1O
[out] -1.79

[in] Indicate its recorded logP; the molecule in question is NNC(=O)c1cnc(N)s1
[out] -2.78

[in] Indicate its recorded logP; the molecule in question is C/C(=N\NC(=O)c1ccncc1)c1cccc(CN2CCN(c3ccc(F)cc3)CC2)c1O
[out] 3.68

[in] Indicate its recorded logP; the molecule in question is NNC(=O)c1ccc(Br)cc1
[out] 0.018
